- target-desc: KOR (kappa opioid receptor) (Homo sapiens)
- Sequence (P41145 whole entry): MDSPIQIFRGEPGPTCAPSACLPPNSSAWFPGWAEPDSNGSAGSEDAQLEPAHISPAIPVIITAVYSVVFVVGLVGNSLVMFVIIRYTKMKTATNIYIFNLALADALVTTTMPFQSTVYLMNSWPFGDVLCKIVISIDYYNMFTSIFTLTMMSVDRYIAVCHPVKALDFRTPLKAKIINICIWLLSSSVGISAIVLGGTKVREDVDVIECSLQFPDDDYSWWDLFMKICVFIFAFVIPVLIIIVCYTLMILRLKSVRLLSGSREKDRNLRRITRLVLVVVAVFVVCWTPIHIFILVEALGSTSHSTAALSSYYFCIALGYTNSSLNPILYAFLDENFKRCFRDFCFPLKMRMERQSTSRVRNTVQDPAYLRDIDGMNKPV
- experiment-description: Radioligand binding assay, KOR affinity
- setup-conditions: ratio of KOR and MOR Ki
Non-standard residues stand in square brackets, D forms with d. Residues, ends and D or L forms follow the SMILES beside them. 2Pal = N[C@@H](Cc1ccccn1)C(=O)O; 4Pal = N[C@@H](Cc1ccncc1)C(=O)O
Record form. Attribute: Selectivity (KOR/MOR). Fill in for each entry.

Examples with answers:
compound: O=C1N[C@H](Cc2c[nH]c3ccccc23)C(=O)N[C@@H](Cc2ccccc2)C(=O)N2CCC[C@@H]2C(=O)N[C@H]1Cc1ccncc1 [JVA-3625] (cyclo(F[dP][4Pal][dW]))
measured-property: Selectivity (KOR/MOR)
recorded-result: 1/12
--
compound: O=C1N[C@H](Cc2ccccc2)C(=O)N[C@@H](Cc2ccccc2)C(=O)N2CCC[C@@H]2C(=O)N[C@H]1Cc1ccccc1 [JVA-3620] (cyclo(F[dP]F[dF]))
measured-property: Selectivity (KOR/MOR)
recorded-result: 1/38

Okay, now this compound:
Look up Selectivity (KOR/MOR) for this compound: O=C1N[C@H](Cc2c[nH]c3ccccc23)C(=O)N[C@@H](Cc2ccccn2)C(=O)N2CCC[C@@H]2C(=O)N[C@H]1Cc1ccccc1 [JVA-3627] (cyclo([2Pal][dP]F[dW])) 1/43
